This section presents sequences with their documented apparent Kd values.
test system: MS2 coat protein; assay: apparent Kd, MS2 coat protein; higher = weaker binding; RNA-MaP array; theophylline 2 mM where present; details: designed as: ON switch for theophylline; no ligand

{"monomer-sequence": "CAUGGGUGGGUGCUGCCACCCAUUGGUGAUACCAGCAUCGAAAGAUGCCCUUGGCAGCACCAACAUGAGGAUCACCCAUGUAAUA", "apparent Kd (nM)": 118}
{"monomer-sequence": "CGAACAAAACUAAAUAAACAACUGGGUGAUACCAGUACAUGUGCGUACCCUUGGCAGCAUCCGGCCACAUGAGGAUCACCCAUGU", "apparent Kd (nM)": 64.7}
{"monomer-sequence": "GGGUAAGAUCCGGAUACCAGCGAACAUGAGGAUCACCCAUGUGAAAUAAGAUAGAAUAAACGCCCUUGGCAGCCGAAAUAGAGUU", "apparent Kd (nM)": 77.3}
{"monomer-sequence": "AAUAAUCUAGGUGAUACCAGCUCAACAUGAGGAUCACCCAUGUACUCAUGUAGAGUUGAGAGCCCUUGGCAGCACCUAGAUAAUA", "apparent Kd (nM)": 553}
{"monomer-sequence": "CAUACUUUAGUAUGUUAUGUGGACAGUGAUACCAGAUACGAAAGUAUCCCUUGGCAGCACAACAUGAGGAUCACCCAUGUAUUUU", "apparent Kd (nM)": 23}
{"monomer-sequence": "CGAUCUUUCGAAAGAAGGAUCGAGUCUGAUACCAGAGACGAAAGUCUCCCUUGGCAGCAGUGCCAACAUGAGGAUCACCCAUGUA", "apparent Kd (nM)": 18.7}
{"monomer-sequence": "ACAUGAGGAUCACCCAUGUCACGGCACGAUACCAGCUGAUGCGGUGGCCCUUGGCAGCGUGACGUUUGGUCCCGCGGAUGACACG", "apparent Kd (nM)": 200}

====

test system: MS2 coat protein; test: apparent Kd, MS2 coat protein; higher = weaker binding; RNA-MaP array; FMN 200 µM where present; conditions: designed as: OFF switch for flavin mononucleotide; no ligand
Tag: Fulfilled if measured apparent Kd is not below 0.02 µM, Not fulfilled if it is.

{"monomer-sequence": "AGGAGGUCAGGAUAUGCUGCUCGUCACUUGCGUGAUGAGUAGCAGAAGGGACAUGAGGAUCACCCAUGUAAAAA", "class-label": "Fulfilled"}
{"monomer-sequence": "GGAAAUUAGCAAGGAUAUCGGCUUACUAUAACUUUAUGCCCUGGGACAUGAGGAUCACCCAUGUACGAGAAGGUGCUAACUACA", "class-label": "Fulfilled"}
{"monomer-sequence": "AAGAAGUCAGGAUAUGCAUGGCGGGACUUGCGUCGUGGCGUGCAGAAGGGACAUGAGGAUCACCCAUGUAAAGU", "class-label": "Fulfilled"}
{"monomer-sequence": "GGAUGUCAAAGACAUCCAAUACGAACAUGAGGAUCACCCAUGUAGGAUAUGCUACUCAAAGAGUAGCAGAAGGACAUGUGUCUU", "class-label": "Fulfilled"}
{"monomer-sequence": "GGAUCGAGUGUGAGGAUAUACCACUGGAUACAGUGGUAGAAGGCACAUGAGGAUCACCCAUGUCUCUACGAUCC", "class-label": "Not fulfilled"}
{"monomer-sequence": "UCGAACGGAAAUAAAGUAAAUAGACAUGAGGAUCACCCAUGUAAGGAUAUGCCUACUAAAAGUAGGCAGAAGGUACGCGUUCGA", "class-label": "Not fulfilled"}
{"monomer-sequence": "GGUUAUUGCAAGGAUAUGCUUUUUUUUGAUAUUGCAGAAGGUGCAACAUGAGGAUCACCCAUGUUGGAGGGAUU", "class-label": "Fulfilled"}
{"monomer-sequence": "UUUUAACAUGAGGAUCACCCAUGUGAGGAUAUCGAAAUUUAUAUUAAUAUUAAUUUAACGAGAAGGCACAUUUU", "class-label": "Fulfilled"}
{"monomer-sequence": "GUUGUGUGAGGAUAUGCCUGGCCGUGUGGCCGGAUUGGGUGGCAGAAGGUACAUGAGGAUCACCCAUGUACGGG", "class-label": "Fulfilled"}
{"monomer-sequence": "CUUAUGUGAGGAUAUCAGUAGUAAUACAAUAGUAUUACUACUGAGAAGGCACAUGAGGAUCACCCAUGUUCCUU", "class-label": "Fulfilled"}
{"monomer-sequence": "CCGCGCAUAGGAUAUUAAUCUCACGACAUGAGGAUCACCCAUGUAACUCUGUGUGCGAUCUAAGAAGGGUGGGCUU", "class-label": "Fulfilled"}
{"monomer-sequence": "GGUAUUCGAGGAUAUCGCAAACGAGACAUGAGGAUCACCCAUGUCCCUCAUGCUUGUCGGCGAGAAGGCGACAAGC", "class-label": "Not fulfilled"}
{"monomer-sequence": "GGGCCCGGAGGAUAUACAUGAGGAUCACCCAUGUACCCGGGCCCUAUUGGGUUUGGGUGUAGAAGGCCGGGCCC", "class-label": "Not fulfilled"}
{"monomer-sequence": "AGCUGGUGACAGCAUCGAGCAAAACAUGAGGAUCACCCAUGUAGAAGGCUGUACGGUUACCGUACAGAGGAUAUACAAAGCUCG", "class-label": "Not fulfilled"}
{"monomer-sequence": "CGCUAAUUAAUUAUAUUAAUUGUACAGGAUAUGUAACAUGAGGAUCACCCAUGUAUUGGGUUUAAACAGAAGGGUAUAUUAGCG", "class-label": "Fulfilled"}
{"monomer-sequence": "GGACUUCCUGAGGAUAUGAAUCAACAUAUAGCUUUAGAAGGCAGGACAUGAGGAUCACCCAUGUGAACUCUUUC", "class-label": "Fulfilled"}
{"monomer-sequence": "GAGUGACAUGAGGAUCACCCAUGUGAGGAUAUCGGCCGGACCUUGUUAGCUUCCGCCGCGAGAAGGCACAUCGG", "class-label": "Fulfilled"}
{"monomer-sequence": "GCUUGUGAAGGAUAUACUGGCGGCAUGCGCUCGACACGCGCACAUGAGGAUCACCCAUGUAGAAGGUCAAACGU", "class-label": "Not fulfilled"}
{"monomer-sequence": "CAGGUAGACUGAGGAUAUACAAUAAAGACCUAGUCUAUCUAGGUCUCUACAUGAGGAUCACCCAUGUAGAAGGCAGUCUGCCUG", "class-label": "Not fulfilled"}
{"monomer-sequence": "GAUAGGACAGAGAAGGACAUAGCUAGAGAUACUAGCAUAUGAACCUCUACAUGAGGAUCACCCAUGUAGGAUAUCUGUCCUAUC", "class-label": "Not fulfilled"}
{"monomer-sequence": "CUUCAACAAGGAUAUGCCAUGGAUCGACACUGUUACGCGAAACAUGAGGAUCACCCAUGUAGAAGGUGUUGAGA", "class-label": "Fulfilled"}
{"monomer-sequence": "AAAAAACAUGAGGAUCACCCAUGUCAGGAUAUCCGAAAAAAAAAAAAAAAAAAAAAAAGGAGAAGGGACAAAAA", "class-label": "Fulfilled"}
{"monomer-sequence": "AAGUAGGUAGGAUAUACAUGGAUAUACAUUCAUGUGGACCUACAUGAGGAUCACCCAUGUAGAAGGACCUACUA", "class-label": "Fulfilled"}
{"monomer-sequence": "UAAUUAAGUGUGAGGAUAUGCUGGUCCUUGGAUCAGCAGAAGGCACAUGAGGAUCACCCAUGUAAAUUAUUUAU", "class-label": "Fulfilled"}
{"monomer-sequence": "UCAUGAUAUGUAGGAUAUCACUUUAAUUGAUUAAUAUAUGAAUAUAGAAUUUGAGAAGGACAUUUACAUGAGGAUCACCCAUGU", "class-label": "Not fulfilled"}
{"monomer-sequence": "GGUCCACAUGAGGAUCACCCAUGUCAGGAUAUACACGGCACUAUAAUAAGUGCCACCCGUAGAAGGGACGCUGG", "class-label": "Not fulfilled"}
{"monomer-sequence": "AAAUUUAACGAAGGAUAUGGUUACAUGAGGAUCACCCAUGUAAUGGUUGUGAUAUUGAUUAAGUUCCAGAAGGUCGUAUACAUA", "class-label": "Fulfilled"}
{"monomer-sequence": "UAUAUAUAGGCAGGAUAUACAUGUAUAUAUAAUUUUUUAUAUAUUAUUACAUGAGGAUCACCCAUGUAGAAGGGCCAUAUUAUA", "class-label": "Fulfilled"}
{"monomer-sequence": "CCUGCGGACAAAGGAUAUUGCGGUGGCCGGCUCAGUAAAUCUAGCCAACAUGAGGAUCACCCAUGUAAGAAGGUUGCCGUUGGU", "class-label": "Not fulfilled"}
{"monomer-sequence": "CCAGAGGAGUAGGAUAUAGGCCGCCAUCGGCGCCUAGAAGGGCUCACAUGAGGAUCACCCAUGUGAUGUUAGUU", "class-label": "Not fulfilled"}

Every entry's value here was drawn from the EternaBench riboswitch data.
